- target.entity: UniProt:O15427
- Sequence (O15427 whole entry): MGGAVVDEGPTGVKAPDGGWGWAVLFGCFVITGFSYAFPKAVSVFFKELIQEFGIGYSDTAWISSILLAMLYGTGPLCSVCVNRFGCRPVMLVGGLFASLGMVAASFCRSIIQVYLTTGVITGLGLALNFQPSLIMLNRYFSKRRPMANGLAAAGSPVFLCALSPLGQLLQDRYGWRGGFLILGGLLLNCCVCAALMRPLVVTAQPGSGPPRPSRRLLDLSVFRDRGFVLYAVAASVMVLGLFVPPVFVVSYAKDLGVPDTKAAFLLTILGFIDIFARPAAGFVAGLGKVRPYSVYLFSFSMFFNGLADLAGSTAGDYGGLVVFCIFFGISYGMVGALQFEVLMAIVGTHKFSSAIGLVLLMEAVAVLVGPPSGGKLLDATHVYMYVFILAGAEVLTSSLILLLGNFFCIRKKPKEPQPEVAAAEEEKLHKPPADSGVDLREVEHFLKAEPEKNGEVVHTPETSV
- protocol.notes: Affinity On-target Cellular interaction: (Inhibition of lactate import in MDA-MB-231 cells) EUB0002761a SLC16A3
- Assay type: functional, cell-based
- Design: mode of action Inhibitor, recommended concentration 1 uM
quantity.name: pIC50
Field pIC50 (float): negative decimal logarithm of the concentration in molar.

Enter reported pIC50 observed with UniProt:O15427 for CC(C)(OCc1cc(-c2cccc(OC3CC3)c2)n(-c2ccccc2Cl)n1)C(=O)O 7.72
